meta.source: the supplement of paper PMC10732440

- Tested on: Caenorhabditis elegans N2 infected with Nematocida parisii ERTm1
- Test description: progeny production relative to DMSO uninfected control; higher = more progeny despite microsporidia infection (inhibition of infection with low host toxicity)
- Applied conditions: infection time 6 days; 100 µM
A collection of compounds and their measured progeny production

| Compound | progeny production, % |
| --- | --- |
| CCC[C@H](NC(=O)[C@@H]1[C@H]2CCC[C@H]2CN1C(=O)[C@@H](NC(=O)[C@@H](NC(=O)c1cnccn1)C1CCCCC1)C(C)(C)C)C(=O)C(=O)NC1CC1 | 10.3 |
| Nc1nnc(-c2ccc(Cl)cc2)s1 | 16.3 |
| CNCC(=O)OCc1cccnc1N(C)C(=O)OC(C)[n+]1cnn(C[C@](O)(c2cc(F)ccc2F)[C@@H](C)c2nc(-c3ccc(C#N)cc3)cs2)c1 (some centres undefined) | 16.8 |
| Cc1c(N)cccc1Cn1ccc(OCCc2cccs2)cc1=O | 15.6 |
| O=C1[C@H](CC[C@H](O)c2ccc(F)cc2)[C@@H](c2ccc(O)cc2)N1c1ccc(F)cc1 | 21 |
| O=C(Nc1nnc(-c2ccc(Cl)cc2)o1)c1ccc(F)cc1 | 12.6 |
| COc1cc(Cc2cc(N)nc(N)n2)cc(OC)c1OC | 19.2 |
| CCCCN1C[C@H](O)[C@@H](O)[C@H](O)[C@H]1CO | 13.9 |
| O=C(O)COc1cccc2c1CC[C@](O)(COC(=O)N(c1ccccc1)c1ccccc1)C2 | 15.6 |
| CCc1cc(O)c(Oc2ccc(C(N)=O)cc2F)cc1F | 8.3 |
| O=c1cc(Nc2ccc3ccccc3c2)[nH]c(=O)[nH]1 | 8.48 |
| Cc1cc(C)n(O)c(=O)c1 | 14.8 |
| Oc1ccc2[nH]c(-c3ccccc3)nc2c1 | 11.5 |
| CC(N)C12CC3CC(CC(C3)C1)C2 (centres undefined) | 6.21 |
| CCOC(=O)Nc1cc(NC(C)CC(C)CN(CC)CC)c2nc(-c3ccccc3)c(-c3ccccc3)nc2n1 (centres undefined) | 13.3 |
| CC(=O)N1CCN(c2ccc(OCC3COC(Cn4ccnc4)(c4ccc(Cl)cc4Cl)O3)cc2)CC1 (centres undefined) | 18 |
| NC(=O)c1cnc2ccc(S(=O)(=O)c3ccccc3)cc2c1Nc1ccc(O)cc1 | 17.7 |
| Cc1c(CN(C)C(=O)/C=C/c2cnc3c(c2)C(C)(C)C(=O)N3)oc2ccccc12 | 20.6 |
| Oc1cccc(C(Nc2nccs2)c2ccc3cccnc3c2O)c1 (centres undefined) | 12.9 |

---

- Test system: Caenorhabditis elegans N2 infected with Nematocida parisii ERTm1
- Test description: progeny production relative to DMSO uninfected control; higher = more progeny despite microsporidia infection (inhibition of infection with low host toxicity)
- Applied conditions: infection time 6 days; 100 µM

| Compound | Endpoint unit | progeny production |
| --- | --- | --- |
| CC(C)(C)c1ccc(C(Cn2cccc(C(F)(F)F)c2=O)NC2Cc3ccccc3C2)cc1 (stereo unspecified) | % | 13.4 |
| Oc1c(C(Nc2nc3ccccc3s2)c2ccc(OC(F)F)cc2)ccc2cccnc12 (stereo unspecified) | % | 9.48 |
| COc1ccc(NC(=O)c2cc3ccccn3n2)cc1 | % | 13.6 |
| CCCC1(C2CC2)c2cc(Cl)ccc2NC(=O)N1C (stereo unspecified) | % | 11.3 |
| NC1C2CC3CC(C2)CC1C3 (stereo unspecified) | % | 13.2 |
| O=C(CC1Sc2ncnn2C1=O)Nc1ccc(Br)cc1 (stereo unspecified) | % | 21.6 |
| N#CCN1C(=O)COc2cc(F)c(N3C(=O)c4ccccc4C3=O)cc21 | % | 15.2 |
| CCc1nc2ccccn2c1C(=O)NCc1ccccc1 | % | 12.8 |
| CCNC(=O)Nc1cn2c(-c3ncc(CC)cn3)cc(-c3cccnc3)cc2n1 | % | 6.08 |
| CCC[C@@H]1C[C@@H](C(=O)N[C@@H]([C@H]2O[C@H](SC)[C@H](O)[C@@H](O)[C@H]2O)[C@H](C)Cl)N(C)C1 | % | 7.36 |
| CN1c2ccc(Cl)cc2N(c2ccccc2)C(=O)c2cn(Cc3ccc(CN4CCOCC4)cc3)nc21 | % | 6.28 |
| CCCCSc1nc(N)c2[nH]c(=O)c(=O)n(Cc3ccccc3)c2n1 | % | 20.2 |
| O=C(NCCN1CCCCC1)c1cccc(C(F)(F)F)c1 | % | 18.2 |
| N=C(N)NCCCCC(=O)Nc1cc(C(F)(F)F)cc(NC(=O)c2cc(C(=O)Nc3cc(C(F)(F)F)cc(NC(=O)CCCCNC(=N)N)c3O[C@@H]3CCNC3)ncn2)c1O[C@@H]1CCNC1 | % | 3.98 |
| CN(O)C(=O)c1cc2c(CN3CCC[C@H]3C(N)=O)cn(Cc3ccc(F)cc3)c2cn1 | % | 11.1 |
| COc1cc(C2C3=C(CC(C)(C)CC3=O)Nc3ccccc3N2C(C)=O)ccc1OCc1ccccc1 (stereo unspecified) | % | 15.1 |
| Nc1nc(-c2ccccc2)nc2c1ncn2[C@@H]1O[C@H](COS(=O)(=O)NC(=O)c2ccccc2O)[C@@H](O)[C@H]1O | % | 6.74 |
| Nc1cccc(-c2nc(N)nc(NC3Cc4ccccc4C3)n2)c1 | % | 20.6 |
| C=C(C)n1c(=O)n(Cc2ccccc2C)c2ccccc21 | % | 14.5 |
| O=c1ccc2ncc(=O)n3c2n1CC3CN1CCC(NCc2cc3c(cn2)OCCC3)CC1 (stereo unspecified) | % | 18.2 |
| O=C1CCC(N2C(=O)c3ccccc3C2=O)C(=O)N1 (stereo unspecified) | % | 13.3 |

---

A collection of molecules and their measured progeny production
- Tested on: Caenorhabditis elegans N2 infected with Nematocida parisii ERTm1
- Test description: progeny production relative to DMSO uninfected control; higher = more progeny despite microsporidia infection (inhibition of infection with low host toxicity)
- Applied conditions: infection time 6 days; 40 µM

| Molecule | Endpoint unit | progeny production |
| --- | --- | --- |
| CCCCc1ccc(-c2cc(C(=O)O)cc(-c3ccc(Cl)cc3)n2)cc1 | % | 5.13 |
| Cc1cc(C)n(O)c(=O)c1 | % | 1.95 |
| O=c1cc(OCc2ccccc2)ccn1Cc1ccccc1 | % | 5.55 |
| CC1(C)Cc2c(C#N)c(SCCc3ccccc3)nc(N3CCOCC3)c2CO1 | % | 3.65 |
| CC1(C)CC(NC(=O)C(=O)Nc2ccc(Cl)cc2)CC(C)(C)N1 | % | 2.32 |
| CN(O)C(=O)c1cc2c(CN3CCC[C@H]3C(N)=O)cn(Cc3ccc(F)cc3)c2cn1 | % | 3.84 |
| C[C@H](NC(=O)C(=O)Nc1ccccc1C(C)(C)C)C(=O)N[C@@H](CC(=O)O)C(=O)COc1c(F)c(F)cc(F)c1F | % | 5.12 |
| O=c1[nH]cnc2c1ncn2[C@H]1CC[C@@H](CO)O1 | % | 6.61 |
| Nc1cccc(-c2nc(N)nc(NC3Cc4ccccc4C3)n2)c1 | % | 8.19 |
| O=C(CC1Sc2ncnn2C1=O)Nc1ccc(Br)cc1 (centres undefined) | % | 6.82 |
| Nc1cc(N)c2nc(-c3ccccc3)c(Nc3ccc(F)cc3)nc2c1 | % | 4.57 |
| OC1O[C@H](CSc2ccc(F)cc2)[C@@H](O)[C@H]1O (some centres undefined) | % | 5.22 |
| Cc1c[nH]c(=O)nc1NCc1ccccc1 | % | 7.05 |
| Cc1c(CN(C)C(=O)/C=C/c2cnc3c(c2)C(C)(C)C(=O)N3)oc2ccccc12 | % | 6.13 |
| COc1c(F)c(F)cc2c(=O)c(C(=O)O)cn(C3CC3)c12 | % | 6.01 |
| O=C(/C=C\n1cnc(-c2cc(C(F)(F)F)cc(C(F)(F)F)c2)n1)NNc1ccccn1 | % | 3.49 |
| Cc1ccc(NC(=O)c2cc(Cl)ccc2O)cc1 | % | 8.65 |
| Nc1ccc(-c2nc3cc(C(F)(F)F)ccc3n2C23CC4CC(CC(C4)C2)C3)cc1 | % | 5.81 |
| CC(C)(C)NC(=O)N[C@H](C(=O)N1C[C@H]2[C@@H]([C@H]1C(=O)NC(CC1CCC1)C(=O)C(N)=O)C2(C)C)C(C)(C)C (some centres undefined) | % | 3.73 |
| O=C(c1cc(O)nc2ccccc12)N1CCN(c2ccccc2)CC1 | % | 5.44 |
| O=C(CCc1ccc2c(c1)OCO2)NCc1ccc(-c2ccccc2F)cc1 | % | 5.04 |
| CC(=N)N1CC[C@H](SC2=C(C(=O)O)N3C(=O)[C@@H]([C@@H](C)O)[C@H]3C2)C1 | % | 4.18 |
| O=C1c2cccc3cccc(c23)C(=O)N1CC1CO1 (centres undefined) | % | 7.39 |
| OCCCCn1cnc2c(O)nc(NCc3ccc(Cl)c(Cl)c3)nc21 | % | 4.76 |
| CC(C)=CCC/C(C)=C/CNCCNC1C2CC3CC(C2)CC1C3 (centres undefined) | % | 6.62 |
| NCc1ccc(S(N)(=O)=O)cc1 | % | 5.64 |
| CC(C)(C)c1ccc(C(=O)NC(=O)N2CCCc3ccccc32)cc1 | % | 4.23 |
| CCCc1ccc(-c2cc3cn([C@H]4C[C@H](O)[C@@H](CO)O4)c(=O)nc3o2)cc1 | % | 3.62 |
| COc1ccc(NC(=O)CC2Sc3ncnn3C2=O)cc1 (centres undefined) | % | 8.48 |
| CC[C@@]1(O)C(=O)OCc2c1cc1n(c2=O)Cc2cc3c(CN(C)C)c(O)ccc3nc2-1 | % | 7.48 |
| O=[N+]([O-])/C(Br)=C/c1ccc(Br)o1 | % | 5.77 |
| CC(C)(C)c1cc(CCC(=O)N2CCC2)cc(C(C)(C)C)c1O | % | 5.76 |
| Cc1ncc([N+](=O)[O-])n1CC(C)O (centres undefined) | % | 7.4 |
| O=C(O)/C=C/C=C/c1cccc(Oc2cc(Cl)cc(Cl)c2)c1 | % | 7.69 |
| C[C@H]1CC[C@@]2(O)C(C)(C)[C@@H]3CC[C@@]2(C)[C@H]1C3 | % | 6.77 |
| CCOc1ccc(/C=N/NC(=O)C2CC2c2ccc(C(C)(C)C)cc2)cc1OCC (centres undefined) | % | 5.73 |
| CC[C@@H](CO)NCCN[C@@H](CC)CO | % | 4.98 |
| N=C(N)c1ccc(COc2ccc(Cl)cc2)cc1 | % | 3.13 |
| O=C(Nc1nnc(-c2ccc(Cl)cc2)o1)c1ccc(F)cc1 | % | 9.22 |
| CCCCCc1ccc(C(=O)NCCn2cc(CCCCCc3c[nH]c(N)n3)nn2)cc1 | % | 8.32 |
| O=C(O)[C@H]1C2CCC(CC2)[C@@H]1Nc1nc(-c2c[nH]c3ncc(F)cc23)ncc1F | % | 8.03 |
| Nc1nc(N)c2c(Sc3ccccc3)cccc2n1 | % | 3.69 |
| CC1=C(/C=C/C(C)=C/C=C/C(C)=C/C(=O)Nc2ccc(O)cc2)C(C)(C)CCC1 | % | 3.02 |
| Nc1nnnn1CCOc1c2[nH]c3ccc(Cl)cc3c2cc2c1[nH]c1ccc(Cl)cc12 | % | 5.74 |
